B1: HDV Ribozyme (parent)
chain: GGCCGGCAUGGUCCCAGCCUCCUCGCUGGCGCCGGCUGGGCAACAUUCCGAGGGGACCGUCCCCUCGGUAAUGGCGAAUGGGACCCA

- Variants of: B1
- RUN_DESCRIPTION: self-cleavage, relative activity (ratio to wild type); higher = more cleavage; co-transcriptional
Outcome: yes (1) for self-cleavage of at least 0.2; no (0) for anything lower.

Tell me whether self-cleavage is at least 0.2 here: C22G G31A no (0)

# check: self-cleavage of C7G C30A is greater than or equal to 0.2 no (0)

Quick check, self-cleavage >= 0.2? U65G G68C yes (1)

self-cleavage >= 0.2 for G25C C58G ? no (0)

Does self-cleavage meet or surpass 0.2 for G29A A42U ? yes (1)

Please tell me: is the variant U12C U79C at or over 0.2 in terms of self-cleavage? no (0)

In plain terms: is recorded self-cleavage at least 0.2 for C66A G82U ? yes (1)

Can C62A G76U be said to have self-cleavage at or above 0.2? yes (1)

Does U27C A42G have a reported self-cleavage of at least 0.2? no (0)
